- target: calcium channel (3H-nitrendipine binding, heart membranes) (Oryctolagus cuniculus, UniProt P15381)
- Construct: from tissue; host or cells: rabbit heart (crude membrane pellet)
- Sequence (P15381 whole entry, other chains not shown): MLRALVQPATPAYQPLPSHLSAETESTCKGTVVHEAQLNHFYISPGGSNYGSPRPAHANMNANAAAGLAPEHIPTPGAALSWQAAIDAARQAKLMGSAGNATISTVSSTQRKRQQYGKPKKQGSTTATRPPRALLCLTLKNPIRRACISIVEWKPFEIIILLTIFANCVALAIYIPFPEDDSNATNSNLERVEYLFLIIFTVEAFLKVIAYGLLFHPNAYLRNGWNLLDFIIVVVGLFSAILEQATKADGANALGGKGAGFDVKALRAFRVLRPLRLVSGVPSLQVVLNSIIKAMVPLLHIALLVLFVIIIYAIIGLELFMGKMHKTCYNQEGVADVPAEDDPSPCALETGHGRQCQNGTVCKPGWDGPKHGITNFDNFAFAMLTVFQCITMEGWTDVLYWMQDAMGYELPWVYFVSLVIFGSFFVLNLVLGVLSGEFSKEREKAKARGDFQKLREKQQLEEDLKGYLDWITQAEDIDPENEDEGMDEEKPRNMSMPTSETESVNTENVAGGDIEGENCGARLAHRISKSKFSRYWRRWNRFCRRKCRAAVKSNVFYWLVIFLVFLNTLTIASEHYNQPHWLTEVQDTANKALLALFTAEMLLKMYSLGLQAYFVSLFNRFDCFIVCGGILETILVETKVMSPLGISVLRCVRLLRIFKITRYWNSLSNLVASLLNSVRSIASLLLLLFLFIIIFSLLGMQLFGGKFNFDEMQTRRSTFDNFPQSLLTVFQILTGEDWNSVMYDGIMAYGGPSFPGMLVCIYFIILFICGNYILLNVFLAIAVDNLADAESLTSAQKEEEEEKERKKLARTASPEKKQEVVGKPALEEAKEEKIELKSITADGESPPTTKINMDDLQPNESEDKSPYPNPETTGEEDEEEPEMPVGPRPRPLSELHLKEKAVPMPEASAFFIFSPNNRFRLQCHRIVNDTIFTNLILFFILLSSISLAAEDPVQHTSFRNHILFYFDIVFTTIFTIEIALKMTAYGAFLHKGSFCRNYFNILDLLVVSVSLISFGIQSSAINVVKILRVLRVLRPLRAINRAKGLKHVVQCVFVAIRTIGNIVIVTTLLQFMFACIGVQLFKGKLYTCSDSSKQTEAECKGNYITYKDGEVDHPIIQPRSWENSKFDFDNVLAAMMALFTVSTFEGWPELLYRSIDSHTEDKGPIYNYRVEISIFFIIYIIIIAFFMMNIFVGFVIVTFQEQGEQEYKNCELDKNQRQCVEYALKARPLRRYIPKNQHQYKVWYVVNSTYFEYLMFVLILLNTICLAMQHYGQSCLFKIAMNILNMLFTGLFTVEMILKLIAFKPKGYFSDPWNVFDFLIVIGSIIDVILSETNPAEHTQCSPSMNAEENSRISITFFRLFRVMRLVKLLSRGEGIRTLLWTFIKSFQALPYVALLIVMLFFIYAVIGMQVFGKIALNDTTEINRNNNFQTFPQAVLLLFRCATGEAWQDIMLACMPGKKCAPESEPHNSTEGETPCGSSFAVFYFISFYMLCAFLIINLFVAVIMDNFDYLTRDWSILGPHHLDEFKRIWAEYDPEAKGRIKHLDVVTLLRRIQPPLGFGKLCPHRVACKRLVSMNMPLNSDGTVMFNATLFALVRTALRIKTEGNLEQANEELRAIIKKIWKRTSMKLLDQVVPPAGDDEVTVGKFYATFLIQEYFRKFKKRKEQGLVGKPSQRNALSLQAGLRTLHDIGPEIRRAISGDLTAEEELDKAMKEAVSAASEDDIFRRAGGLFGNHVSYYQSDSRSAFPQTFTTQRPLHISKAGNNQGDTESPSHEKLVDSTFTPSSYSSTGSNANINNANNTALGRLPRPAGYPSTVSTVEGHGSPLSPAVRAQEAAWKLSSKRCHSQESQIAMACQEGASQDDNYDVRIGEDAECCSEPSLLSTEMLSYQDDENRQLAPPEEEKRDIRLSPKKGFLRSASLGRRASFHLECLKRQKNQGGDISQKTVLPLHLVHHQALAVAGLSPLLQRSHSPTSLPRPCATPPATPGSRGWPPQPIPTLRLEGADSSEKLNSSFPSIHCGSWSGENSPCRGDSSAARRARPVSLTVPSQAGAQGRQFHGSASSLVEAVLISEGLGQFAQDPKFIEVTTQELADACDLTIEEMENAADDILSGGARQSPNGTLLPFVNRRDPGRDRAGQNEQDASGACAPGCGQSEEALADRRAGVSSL
- Sequence (P13806 27-960 partner limits assumed, other chains not shown): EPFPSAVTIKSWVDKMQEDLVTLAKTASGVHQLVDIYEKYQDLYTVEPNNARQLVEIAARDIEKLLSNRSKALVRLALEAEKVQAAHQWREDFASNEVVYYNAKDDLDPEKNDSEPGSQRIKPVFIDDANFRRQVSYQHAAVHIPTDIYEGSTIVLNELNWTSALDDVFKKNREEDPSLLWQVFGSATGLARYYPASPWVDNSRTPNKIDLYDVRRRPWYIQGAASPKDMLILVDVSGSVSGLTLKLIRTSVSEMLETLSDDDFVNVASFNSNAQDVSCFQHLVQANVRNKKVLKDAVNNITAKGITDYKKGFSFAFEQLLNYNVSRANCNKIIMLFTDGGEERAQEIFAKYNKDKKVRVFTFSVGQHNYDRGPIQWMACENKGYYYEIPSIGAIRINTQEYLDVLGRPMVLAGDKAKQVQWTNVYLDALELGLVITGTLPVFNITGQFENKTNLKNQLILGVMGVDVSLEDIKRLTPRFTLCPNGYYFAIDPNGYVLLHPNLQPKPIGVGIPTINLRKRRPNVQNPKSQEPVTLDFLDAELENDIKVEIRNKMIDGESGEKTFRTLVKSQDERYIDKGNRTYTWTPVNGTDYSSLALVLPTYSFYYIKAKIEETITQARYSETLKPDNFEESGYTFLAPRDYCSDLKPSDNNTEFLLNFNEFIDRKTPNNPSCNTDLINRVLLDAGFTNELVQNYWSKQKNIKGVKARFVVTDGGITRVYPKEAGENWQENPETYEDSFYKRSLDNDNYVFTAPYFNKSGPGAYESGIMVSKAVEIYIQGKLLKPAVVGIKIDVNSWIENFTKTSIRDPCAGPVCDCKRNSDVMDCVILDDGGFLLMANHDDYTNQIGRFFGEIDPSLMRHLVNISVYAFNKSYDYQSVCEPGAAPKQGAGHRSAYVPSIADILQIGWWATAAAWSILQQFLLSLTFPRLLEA
- Sequence (P13806 961-1106 partner limits assumed, other chains not shown): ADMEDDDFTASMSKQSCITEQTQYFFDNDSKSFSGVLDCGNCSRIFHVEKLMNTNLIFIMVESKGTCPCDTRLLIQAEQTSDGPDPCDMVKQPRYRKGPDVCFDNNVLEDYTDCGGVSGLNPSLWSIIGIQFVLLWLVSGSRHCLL
- experiment: Assay for inhibition of nitrendipine binding (3H-nitrendipine, rabbit heart membranes)
- test_conditions: 3H-nitrendipine, compounds of Formula IIa (Table 2)
pIC50: −log10 of the molar value.
In this section we review reported pIC50 values for a set of molecules.

molecule: CC1=C(C(=O)OCc2oc(=O)oc2C)C(c2cccc(Cl)c2Cl)C2=C(COCCS2(=O)=O)N1 (stereo not shown) [Compound 19]
pIC50: 7.74
--
molecule: CC1=C(C(=O)OCCCO)C(c2ccccc2Cl)C2=C(COCCS2(=O)=O)N1 (stereo not shown) [Compound 21]
pIC50: 6.25
--
molecule: CC1=C(C(=O)OCCOC(=O)C(C)C)C(c2ccccc2Cl)C2=C(COCCS2(=O)=O)N1 (stereo not shown) [Compound 17]
pIC50: 7.44
--
molecule: CC1=C(C(=O)OCCOC(=O)c2ccccc2)C(c2c(F)cccc2Cl)C2=C(COCCS2(=O)=O)N1 (stereo not shown) [Compound 10]
pIC50: 7.77
--
molecule: CC1=C(C(=O)OCCOC(=O)C2CC2)C(c2c(F)cccc2Cl)C2=C(COCCS2(=O)=O)N1 (stereo not shown) [Compound 13]
pIC50: 6.38
--
molecule: CC1=C(C(=O)OCCOC(=O)C2CCCCC2)C(c2c(F)cccc2Cl)C2=C(COCCS2(=O)=O)N1 (stereo not shown) [Compound 11]
pIC50: 7.02
--
molecule: CC1=C(C(=O)OCc2oc(=O)oc2-c2ccccc2)C(c2cccc(Cl)c2Cl)C2=C(COCCS2(=O)=O)N1 (stereo not shown) [Compound 18]
pIC50: 7.68
